Attribution: ChEMBL document CHEMBL1275372

# TEST_SYSTEM: 5-hydroxytryptamine receptor 2C (Homo sapiens)
# Sequence (P28335 whole entry): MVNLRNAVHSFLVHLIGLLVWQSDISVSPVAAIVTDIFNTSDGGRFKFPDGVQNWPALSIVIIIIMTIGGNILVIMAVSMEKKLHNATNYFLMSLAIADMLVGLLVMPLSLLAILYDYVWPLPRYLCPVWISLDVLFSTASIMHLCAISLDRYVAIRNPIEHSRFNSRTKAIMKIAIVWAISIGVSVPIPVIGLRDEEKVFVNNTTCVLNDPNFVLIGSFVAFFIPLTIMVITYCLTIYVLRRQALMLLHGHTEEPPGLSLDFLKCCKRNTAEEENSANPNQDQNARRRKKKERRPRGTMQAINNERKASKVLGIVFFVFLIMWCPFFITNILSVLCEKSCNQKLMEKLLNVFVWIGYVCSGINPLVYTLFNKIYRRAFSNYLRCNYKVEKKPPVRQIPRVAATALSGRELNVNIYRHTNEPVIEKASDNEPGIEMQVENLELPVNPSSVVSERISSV
pIC50: −log10 of the molar value.
READOUT_LABEL: pIC50

Value lookup for pIC50; key = CN(C)[C@@H]1CC[C@H](c2c[nH]c3ccc(C#N)cc23)C1
< 5.00

====

# TEST_SYSTEM: 5-hydroxytryptamine receptor 5A (Homo sapiens)
# Sequence (P47898 whole entry): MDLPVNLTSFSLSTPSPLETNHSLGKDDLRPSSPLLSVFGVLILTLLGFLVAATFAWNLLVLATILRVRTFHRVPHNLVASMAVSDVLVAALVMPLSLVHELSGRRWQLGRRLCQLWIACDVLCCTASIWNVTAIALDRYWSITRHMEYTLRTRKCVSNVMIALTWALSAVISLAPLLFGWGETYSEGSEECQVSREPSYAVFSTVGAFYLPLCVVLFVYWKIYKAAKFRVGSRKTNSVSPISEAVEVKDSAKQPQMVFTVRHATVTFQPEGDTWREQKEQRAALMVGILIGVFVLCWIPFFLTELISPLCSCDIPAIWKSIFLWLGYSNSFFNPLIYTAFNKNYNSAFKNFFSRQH
pIC50: −log10 of the molar value.
READOUT_LABEL: pIC50

Entry CN(C)[C@@H]1CC[C@H](c2c[nH]c3ccc(C#N)cc23)C1 , system 5-hydroxytryptamine receptor 5A (Homo sapiens): what pIC50 was measured?
< 6.00

====

# TEST_SYSTEM: 5-hydroxytryptamine receptor 4 (Homo sapiens, UniProt Q13639)
# Sequence (Q13639 whole entry): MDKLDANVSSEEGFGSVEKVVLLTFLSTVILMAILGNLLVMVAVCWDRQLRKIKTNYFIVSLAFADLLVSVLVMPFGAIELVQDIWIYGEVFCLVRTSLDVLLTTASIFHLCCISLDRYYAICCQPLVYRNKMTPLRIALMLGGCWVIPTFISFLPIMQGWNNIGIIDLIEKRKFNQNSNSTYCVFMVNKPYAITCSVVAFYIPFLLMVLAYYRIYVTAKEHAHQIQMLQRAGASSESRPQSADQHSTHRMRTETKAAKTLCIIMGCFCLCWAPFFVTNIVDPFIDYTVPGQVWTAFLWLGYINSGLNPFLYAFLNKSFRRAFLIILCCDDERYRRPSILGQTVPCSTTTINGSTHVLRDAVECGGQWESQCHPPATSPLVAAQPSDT
pIC50: −log10 of the molar value.
READOUT_LABEL: pIC50

Value lookup for pIC50; key = CN(C)[C@@H]1CC[C@H](c2c[nH]c3ccc(C#N)cc23)C1
< 4.52

====

# TEST_SYSTEM: 5-hydroxytryptamine receptor 7 (Homo sapiens)
# Sequence (P34969 whole entry): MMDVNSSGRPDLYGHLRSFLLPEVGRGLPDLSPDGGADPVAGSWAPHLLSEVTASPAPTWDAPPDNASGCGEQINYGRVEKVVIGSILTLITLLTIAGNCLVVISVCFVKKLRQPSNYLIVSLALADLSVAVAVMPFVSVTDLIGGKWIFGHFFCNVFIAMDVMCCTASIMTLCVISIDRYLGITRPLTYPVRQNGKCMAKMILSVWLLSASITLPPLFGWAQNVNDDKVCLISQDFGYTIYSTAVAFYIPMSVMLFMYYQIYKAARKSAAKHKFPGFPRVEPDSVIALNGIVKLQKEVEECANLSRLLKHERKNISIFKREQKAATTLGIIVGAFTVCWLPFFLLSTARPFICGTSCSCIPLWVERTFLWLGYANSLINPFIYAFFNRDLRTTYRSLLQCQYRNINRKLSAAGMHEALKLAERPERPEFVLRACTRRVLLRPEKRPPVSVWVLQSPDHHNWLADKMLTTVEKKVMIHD
pIC50: −log10 of the molar value.
READOUT_LABEL: pIC50

Value lookup for pIC50; key = CN(C)[C@@H]1CC[C@H](c2c[nH]c3ccc(C#N)cc23)C1
< 6.00

====

# ASSAY_SUMMARY: Half life in rat at 3 mg/kg, po by microdialysis method
# Format: ADME, organism-based
# Parameters: dose 3 mg/kg, route oral
# EXPERIMENTAL_SETUP: in vivo
READOUT_LABEL: half-life
A complete answer gives the number followed by the unit.

Value lookup for half-life; key = CN(C)[C@@H]1CC[C@H](c2c[nH]c3ccc(C#N)cc23)C1
33 min

====

# TEST_SYSTEM: Sodium-dependent serotonin transporter (Homo sapiens)
# Sequence (P31645 whole entry): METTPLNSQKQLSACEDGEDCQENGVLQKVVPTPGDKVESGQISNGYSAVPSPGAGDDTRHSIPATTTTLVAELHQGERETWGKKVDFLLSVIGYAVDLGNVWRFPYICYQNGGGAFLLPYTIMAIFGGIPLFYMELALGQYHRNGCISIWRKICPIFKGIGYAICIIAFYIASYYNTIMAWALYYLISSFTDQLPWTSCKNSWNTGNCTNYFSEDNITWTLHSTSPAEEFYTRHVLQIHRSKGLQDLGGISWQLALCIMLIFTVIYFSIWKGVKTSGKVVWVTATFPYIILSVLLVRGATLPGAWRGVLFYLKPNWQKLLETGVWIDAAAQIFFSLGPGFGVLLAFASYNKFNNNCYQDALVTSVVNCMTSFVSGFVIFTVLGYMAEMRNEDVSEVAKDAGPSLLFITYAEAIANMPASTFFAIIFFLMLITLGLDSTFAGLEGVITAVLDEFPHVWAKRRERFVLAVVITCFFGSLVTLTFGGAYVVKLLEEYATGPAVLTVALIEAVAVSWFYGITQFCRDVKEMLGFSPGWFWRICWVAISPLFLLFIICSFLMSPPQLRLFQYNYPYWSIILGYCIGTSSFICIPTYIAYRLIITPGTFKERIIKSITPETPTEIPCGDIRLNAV
READOUT_LABEL: log10 of IC50 (log10 of the value in nM)
Hello, just confirming the data are log10 of IC50 with units of nM.

Solved cases below.
CN(Cc1ccccc1)C1CCC(c2c[nH]c3ccc(C#N)cc23)C1 (configuration not stated) : 0.72
CN(C)[C@@H]1CC[C@@H](c2c[nH]c3ccc(F)cc23)C1 : 0.45
CCN(CC)C1CCC(c2c[nH]c3ccc(C#N)cc23)C1 (configuration not stated) : 0.79
CNC1CCC(c2c[nH]c3ccc(C#N)cc23)C1 (configuration not stated) : 0.93
CN(C)C1CCC(c2c[nH]c3cccc(Br)c23)C1 (configuration not stated) : 0.72
CCCNC1CCC(c2c[nH]c3ccc(C#N)cc23)C1 (configuration not stated) : 1.48
CCNC1CCC(c2c[nH]c3ccc(C#N)cc23)C1 (configuration not stated) : 0.82
CCN(CC)C1CCC(c2c[nH]c3ccc(F)cc23)C1 (configuration not stated) : 0.86
Fc1ccc2[nH]cc(C3CCC(N4CCCC4)C3)c2c1 (configuration not stated) : 0.46
CN(C)C1CCC(c2c[nH]c3cccc(F)c23)C1 (configuration not stated) : 1.49

Value lookup for log10 of IC50; key = CN(C)C1CCC(c2c[nH]c3ccc(C#N)cc23)C1 (configuration not stated)
-0.32

Request: CN(C)C1CCC(c2c[nH]c3cc(Cl)ccc23)C1 (configuration not stated)
0.81

Request: CCN(C)C1CCC(c2c[nH]c3ccc(F)cc23)C1 (configuration not stated)
0.57

Request: CN(C)C1CCC(c2c[nH]c3cc(F)ccc23)C1 (configuration not stated)
0.71

Request: N#Cc1ccc2[nH]cc(C3CCC(N4CCCC4)C3)c2c1 (configuration not stated)
0.48

Request: N#Cc1ccc2[nH]cc(C3CCC(N4CCCCC4)C3)c2c1 (configuration not stated)
1.81

Request: CN(C)C1CCC(c2c[nH]c3c(Cl)cccc23)C1 (configuration not stated)
0.15

Request: CN(C)C1CCC(c2c[nH]c3ccc(F)cc23)C1 (configuration not stated)
0.23

Request: N#Cc1ccc2[nH]cc(C3CCC(N)C3)c2c1 (configuration not stated)
1.51

Request: CN(C)[C@@H]1CC[C@H](c2c[nH]c3ccc(F)cc23)C1 (single isomer, unassigned)
0.38

Request: CN(C)[C@@H]1CC[C@@H](c2c[nH]c3ccc(C#N)cc23)C1
0.11

Request: N#Cc1ccc2[nH]cc(C3CCC(N4CCOCC4)C3)c2c1 (configuration not stated)
2.04

Request: CN(C)[C@@H]1CC[C@H](c2c[nH]c3ccc(C#N)cc23)C1
-0.66

Request: CN(C)C1CCC(c2c[nH]c3ccc(Br)cc23)C1 (configuration not stated)
0.63

Request: CN(C)C1CCC(c2c[nH]c3ccc(Cl)cc23)C1 (configuration not stated)
0.48

Request: CN(C)C1CCC(c2c[nH]c3c(F)cccc23)C1 (configuration not stated)
0.52

Request: CN(C)C1CCC(c2c[nH]c3cc(Br)ccc23)C1 (configuration not stated)
0.98

Request: CN(C)[C@H]1CC[C@H](c2c[nH]c3ccc(C#N)cc23)C1
-0.01

Request: CCN(C)C1CCC(c2c[nH]c3ccc(C#N)cc23)C1 (configuration not stated)
0.20

Request: CN(C)[C@H]1CC[C@@H](c2c[nH]c3ccc(C#N)cc23)C1
-0.42

Request: CN(C)C1CCC(c2c[nH]c3c(Br)cccc23)C1 (configuration not stated)
0.20

Request: CN(C)[C@H]1CC[C@H](c2c[nH]c3ccc(F)cc23)C1
0.77
